Ref: paper PMC7880169

subject of test: σ1R (Cavia porcellus, UniProt Q60492)
Sequence (Q60492 whole entry): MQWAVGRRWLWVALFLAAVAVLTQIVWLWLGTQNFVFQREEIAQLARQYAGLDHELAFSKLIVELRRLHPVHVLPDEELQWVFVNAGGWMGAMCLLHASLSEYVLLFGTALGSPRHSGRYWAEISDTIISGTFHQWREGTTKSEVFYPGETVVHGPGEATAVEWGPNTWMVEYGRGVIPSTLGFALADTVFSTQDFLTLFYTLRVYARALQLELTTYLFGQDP
protocol text: σ1R radioligand binding with [3H]
Set-up: species or system guinea pig
stated conditions: selectivity ratio σ2R over σ1R
# note: exactly 6 is not below, so it is Not satisfied; use Satisfied for Ki σ2R /Ki σ1R strictly under it

Here are 4 molecules together with their reported answers.
{"columns": ["mol", "subject of test", "assigned class"],
 "data": [
  ["CN(CCn1c(=O)sc2ccccc21)C12CC3CC(CC(C3)C1)C2", "σ1R (Cavia porcellus, UniProt Q60492)", "Not satisfied"],
  ["CCCc1ccc2c(c1)sc(=O)n2CCN(C)C12CC3CC(CC(C3)C1)C2", "σ1R (Cavia porcellus, UniProt Q60492)", "Not satisfied"],
  ["CCCc1ccc2c(c1)sc(=O)n2CCNC12CC3CC(CC(C3)C1)C2", "σ1R (Cavia porcellus, UniProt Q60492)", "Not satisfied"],
  ["O=c1sc2ccccc2n1CCNC12CC3CC(CC(C3)C1)C2", "σ1R (Cavia porcellus, UniProt Q60492)", "Satisfied"]
]}

Determine if CCC(=O)c1ccc2c(c1)sc(=O)n2CCN(C)C12CC3CC(CC(C3)C1)C2 shows Ki σ2R /Ki σ1R strictly lower than 6.
Not satisfied

Determine if CCC(=O)c1ccc2c(c1)sc(=O)n2CCNC12CC3CC(CC(C3)C1)C2 shows Ki σ2R /Ki σ1R strictly lower than 6.
Not satisfied

----------
protocol text: In vitro microsomal stability in RLMs
Format: in vitro ADME, rat
stated conditions: rat, rat liver microsomes, pH 7.4
property: microsomal CLint at 1 μM
Write your answer as a measured quantity: the number, then the unit.

Known microsomal CLint at 1 μM results, listed for orientation:
{"columns": ["compound", "microsomal CLint at 1 μM"],
 "data": [
  ["CCCc1ccc2c(c1)sc(=O)n2CCN(C)C12CC3CC(CC(C3)C1)C2 [Compound 12]", "370 µL/min/mg"],
  ["CCC(=O)c1ccc2c(c1)sc(=O)n2CCN(C)C12CC3CC(CC(C3)C1)C2 [Compound 11]", "560 µL/min/mg"],
  ["O=c1sc2ccccc2n1CCNC12CC3CC(CC(C3)C1)C2 [Compound 7]", "460 µL/min/mg"],
  ["CCCc1ccc2c(c1)sc(=O)n2CCN1CCCCCC1 [SN56, reference compound]", "710 µL/min/mg"],
  ["CCC(=O)c1ccc2c(c1)sc(=O)n2CCNC12CC3CC(CC(C3)C1)C2 [Compound 8]", "160 µL/min/mg"],
  ["CCCc1ccc2c(c1)sc(=O)n2CCNC12CC3CC(CC(C3)C1)C2 [Compound 9]", "280 µL/min/mg"]
]}

# next compound below
Request the reported microsomal CLint at 1 μM associated with CN(CCn1c(=O)sc2ccccc21)C12CC3CC(CC(C3)C1)C2 [Compound 10]
650 µL/min/mg

----------
subject of test: UniProt:Q60492
Property: pKi; scope: individual compounds
Keep it numeric: pKi is minus log10 of the concentration in mol/L.

Known pKi results, listed for orientation:
{"columns": ["mol", "property", "assay value"],
 "data": [
  ["CCCc1ccc2c(c1)sc(=O)n2CCNC12CC3CC(CC(C3)C1)C2", "pKi", 7.95],
  ["CCC(=O)c1ccc2c(c1)sc(=O)n2CCN(C)C12CC3CC(CC(C3)C1)C2", "pKi", 7.89],
  ["CN(CCn1c(=O)sc2ccccc21)C12CC3CC(CC(C3)C1)C2", "pKi", 7.89]
]}

Request the reported pKi associated with CCCc1ccc2c(c1)sc(=O)n2CCN(C)C12CC3CC(CC(C3)C1)C2
8.14

Request the reported pKi associated with O=c1sc2ccccc2n1CCNC12CC3CC(CC(C3)C1)C2
6.88

Request the reported pKi associated with CCC(=O)c1ccc2c(c1)sc(=O)n2CCNC12CC3CC(CC(C3)C1)C2
7.95
